I'd appreciate it if you could supply PBM E-score values for the items below.
Biological target: Ybr033w (UniProt P38073)
Sequence: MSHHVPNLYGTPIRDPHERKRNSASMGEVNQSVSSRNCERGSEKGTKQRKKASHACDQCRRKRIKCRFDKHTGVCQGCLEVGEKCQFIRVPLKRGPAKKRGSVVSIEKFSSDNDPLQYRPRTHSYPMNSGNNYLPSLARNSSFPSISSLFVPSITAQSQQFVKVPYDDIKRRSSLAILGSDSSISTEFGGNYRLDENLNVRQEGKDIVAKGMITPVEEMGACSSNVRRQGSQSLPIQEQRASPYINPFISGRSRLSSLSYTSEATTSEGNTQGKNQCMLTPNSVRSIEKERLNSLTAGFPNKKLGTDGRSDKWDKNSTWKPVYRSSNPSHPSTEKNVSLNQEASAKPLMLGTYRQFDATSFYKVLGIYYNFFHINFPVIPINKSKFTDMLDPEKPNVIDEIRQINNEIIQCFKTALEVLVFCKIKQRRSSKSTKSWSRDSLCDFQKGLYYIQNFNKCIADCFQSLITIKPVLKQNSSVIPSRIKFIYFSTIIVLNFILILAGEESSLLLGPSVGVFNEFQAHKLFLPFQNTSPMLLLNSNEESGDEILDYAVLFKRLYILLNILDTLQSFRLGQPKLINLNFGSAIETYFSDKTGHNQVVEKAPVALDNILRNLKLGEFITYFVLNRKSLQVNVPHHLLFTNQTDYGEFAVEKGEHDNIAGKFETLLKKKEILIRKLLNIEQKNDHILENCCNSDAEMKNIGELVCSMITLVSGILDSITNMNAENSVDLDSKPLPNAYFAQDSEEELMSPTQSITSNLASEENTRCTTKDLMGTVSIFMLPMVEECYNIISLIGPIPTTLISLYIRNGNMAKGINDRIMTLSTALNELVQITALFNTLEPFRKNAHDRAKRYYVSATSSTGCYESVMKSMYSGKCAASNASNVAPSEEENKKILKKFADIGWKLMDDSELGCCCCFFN
Assay: PBM E-score (8-mer binding enrichment) (E-score (-0.5 to 0.5)); higher = stronger / more preferred TF binding
Conditions: protein concentration: 200 nM; construct: GST-full length
Whole data set: some 33,000 sequences, median “E-score (-0.5 to 0.5)” near -0.012, cut for the highest 2% near 0.29. For the sample, the highest values were picked, then their nearest neighbours and some sequences at random.
The answer should be written as a number, with no unit following it.

QUERY: Please report the recorded PBM E-score for `CTGAGCAA` .
RESULT: -0.0556

QUERY: Also `GGAGAGAC` , if possible.
RESULT: -0.0678

QUERY: Now this one: `GAGACCAA`
RESULT: 0.0622

* * *

Hi there, I'd appreciate the recorded PBM E-score for every entry that follows.
Biological target: Ybr033w (UniProt P38073)
Sequence: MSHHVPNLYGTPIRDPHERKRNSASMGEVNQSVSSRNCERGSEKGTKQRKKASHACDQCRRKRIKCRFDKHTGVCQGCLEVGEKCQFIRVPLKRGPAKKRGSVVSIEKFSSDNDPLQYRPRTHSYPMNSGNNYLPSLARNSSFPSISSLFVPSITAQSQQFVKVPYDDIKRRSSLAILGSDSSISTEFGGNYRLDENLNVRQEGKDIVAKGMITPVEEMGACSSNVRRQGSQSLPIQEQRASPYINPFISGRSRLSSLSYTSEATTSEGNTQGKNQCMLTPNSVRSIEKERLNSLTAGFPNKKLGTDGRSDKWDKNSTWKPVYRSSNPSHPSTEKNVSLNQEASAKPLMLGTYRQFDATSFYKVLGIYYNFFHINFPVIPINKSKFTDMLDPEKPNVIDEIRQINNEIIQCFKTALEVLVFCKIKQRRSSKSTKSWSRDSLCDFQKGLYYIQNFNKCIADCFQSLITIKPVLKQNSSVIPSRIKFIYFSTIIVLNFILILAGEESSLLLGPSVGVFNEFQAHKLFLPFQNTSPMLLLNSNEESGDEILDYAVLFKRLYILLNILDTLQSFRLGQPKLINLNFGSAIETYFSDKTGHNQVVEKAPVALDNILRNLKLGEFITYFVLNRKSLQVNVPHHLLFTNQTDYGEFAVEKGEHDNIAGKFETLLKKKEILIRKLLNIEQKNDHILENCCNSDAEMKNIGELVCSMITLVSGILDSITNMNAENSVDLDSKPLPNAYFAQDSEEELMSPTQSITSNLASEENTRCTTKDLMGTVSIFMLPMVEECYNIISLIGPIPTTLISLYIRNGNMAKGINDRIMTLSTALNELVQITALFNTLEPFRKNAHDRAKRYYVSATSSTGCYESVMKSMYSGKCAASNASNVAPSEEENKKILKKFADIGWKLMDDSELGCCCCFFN
Assay: PBM E-score (8-mer binding enrichment) (E-score (-0.5 to 0.5)); higher = stronger / more preferred TF binding
Details: protein concentration: 200 nM; construct: GST-full length
Whole data set: some 33,000 sequences, median “E-score (-0.5 to 0.5)” near -0.012, cut for the highest 2% near 0.29. This excerpt belongs to a sample that is enriched for the highest values.
Just the number, please.

QUERY: PBM E-score lookup needed for `ATATTTAC` , thanks.
RESULT: 0.215

QUERY: What do we get for `AAATAAGG` ?
RESULT: 0.00755

QUERY: Param item: `ATTAAAAG`
RESULT: 0.223

QUERY: What do you have for `ATATAAAC` ?
RESULT: 0.142

QUERY: Same again, this time with `CTAAGGGA`
RESULT: 0.0981

QUERY: Entry `ATTAAAGA` please
RESULT: 0.327

QUERY: // next record `ATTAAACG`
RESULT: 0.27

QUERY: Do the same for `AGATTTTC` please
RESULT: 0.322

QUERY: // same read-out, input: `GTCCTTGA`
RESULT: -0.0584

QUERY: Follow-up entry: `AAATAAAA`
RESULT: 0.233

QUERY: Can you check `ATATAAAG` next?
RESULT: 0.211

QUERY: Proceed to `CAGCGAAC`
RESULT: 0.0498

QUERY: What about `GATTAAGC` ?
RESULT: 0.104

QUERY: Lookup `CATTAATC`
RESULT: 0.252

QUERY: Also `AAATAAGT` ?
RESULT: 0.295

QUERY: Another sequence to look at: `ATGGCCTG`
RESULT: -0.16

* * *

Biological target: Ybr033w (UniProt P38073)
Sequence: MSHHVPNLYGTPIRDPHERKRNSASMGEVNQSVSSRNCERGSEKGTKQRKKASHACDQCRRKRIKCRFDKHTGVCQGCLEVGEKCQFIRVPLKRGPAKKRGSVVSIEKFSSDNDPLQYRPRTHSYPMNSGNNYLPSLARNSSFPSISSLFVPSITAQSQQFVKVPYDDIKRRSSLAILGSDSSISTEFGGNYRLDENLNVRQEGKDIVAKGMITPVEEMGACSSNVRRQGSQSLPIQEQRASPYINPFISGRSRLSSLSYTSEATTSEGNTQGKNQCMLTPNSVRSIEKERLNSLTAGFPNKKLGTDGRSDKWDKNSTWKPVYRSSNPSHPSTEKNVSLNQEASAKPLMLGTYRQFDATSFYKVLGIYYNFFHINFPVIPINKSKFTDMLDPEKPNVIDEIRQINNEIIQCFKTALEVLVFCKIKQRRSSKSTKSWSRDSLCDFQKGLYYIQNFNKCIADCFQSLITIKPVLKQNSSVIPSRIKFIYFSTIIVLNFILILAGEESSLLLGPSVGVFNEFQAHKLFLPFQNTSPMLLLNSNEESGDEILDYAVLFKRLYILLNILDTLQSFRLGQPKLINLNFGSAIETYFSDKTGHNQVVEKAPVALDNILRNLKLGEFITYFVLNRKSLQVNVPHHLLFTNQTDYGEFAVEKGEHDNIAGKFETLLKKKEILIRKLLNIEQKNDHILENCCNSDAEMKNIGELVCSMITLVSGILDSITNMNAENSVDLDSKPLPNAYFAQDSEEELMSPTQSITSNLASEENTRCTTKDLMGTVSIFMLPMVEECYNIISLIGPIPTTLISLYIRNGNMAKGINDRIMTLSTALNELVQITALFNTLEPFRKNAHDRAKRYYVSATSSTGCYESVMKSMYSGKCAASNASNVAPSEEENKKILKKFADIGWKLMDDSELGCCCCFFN
Test: PBM E-score (8-mer binding enrichment) (E-score (-0.5 to 0.5)); higher = stronger / more preferred TF binding
Settings: protein concentration: 200 nM; construct: GST-full length
Over roughly 33,000 sequences, “E-score (-0.5 to 0.5)” has its median near -0.012; the highest 2% begin near 0.29. For the sample, the highest values were picked, then their nearest neighbours and some sequences at random.
readout-label: PBM E-score
Provide a numeric answer; units are not to be included.

QUERY: Missing value: PBM E-score, Ybr033w (UniProt P38073), entry `TTGTTAAA` . Fill in?
RESULT: 0.0557

QUERY: Another: `GATTAAAA`
RESULT: 0.311

QUERY: Now give it for `ATGTTAAA` too.
RESULT: 0.289

QUERY: Also, `GTAATAGA` please.
RESULT: 0.17

QUERY: Do the same for `TGGCCTAA` please
RESULT: -0.088

QUERY: Same for `GAGATTAA`
RESULT: 0.182

QUERY: Item: `TAGTTGAA`
RESULT: 0.307

QUERY: Now this one: `ATAATAAA`
RESULT: 0.366

QUERY: And `CGGACAAA` ?
RESULT: 0.297

QUERY: Query `AATATTTC` next
RESULT: 0.34

QUERY: Try this sequence too: `GCGAGGAA`
RESULT: 0.125

QUERY: Now try `AGTAGACT` .
RESULT: -0.0063

QUERY: Now give it for `CTTTGTGC` too.
RESULT: -0.00737

QUERY: Request: `AATGCAAA`
RESULT: 0.274

QUERY: Please do the same for `CGAATATA` as well.
RESULT: 0.156

QUERY: Let us now turn to `GGGAATAC`
RESULT: -0.0369

QUERY: Could you do the same for `CGCTCTAA` , please?
RESULT: -0.0524

QUERY: Same lookup for `AATTCTCA` , please.
RESULT: 0.204

QUERY: Continue with `ACGTATAC`
RESULT: 0.181

QUERY: // query: `AGCAGTGG`
RESULT: 0.0536

QUERY: Repeat with `ATCTTGAA`
RESULT: 0.187

QUERY: # repeat for `ATACGCCG`
RESULT: -0.149

QUERY: Proceed to `CATAAAAC`
RESULT: 0.0263

QUERY: Param item: `CGGAATAC`
RESULT: 0.186

QUERY: // next record `GTACCACA`
RESULT: 0.121

QUERY: What do you get for `AATATTTG` ?
RESULT: 0.232

QUERY: What do you have for `ACGATCTA` ?
RESULT: -0.0695

QUERY: And for `GATGCTCA` ?
RESULT: -0.113

QUERY: For `TAGATTAA` then?
RESULT: 0.312

QUERY: Subsequent entry: `CGGAATAG`
RESULT: 0.126

QUERY: Same lookup for `AGAACTAT` , please.
RESULT: 0.275

QUERY: Also, `CTCTGCGC` please.
RESULT: -0.118

QUERY: Input `CGTCAAAA`
RESULT: 0.108

QUERY: Next sequence up: `CTGATTCC`
RESULT: -0.0421

QUERY: Moving on to `CGAGTGCC`
RESULT: -0.198

QUERY: Consider next the sequence `CTAATATC` in the same way.
RESULT: 0.196

QUERY: Would you kindly repeat that for `ACCAAGCC` ?
RESULT: -0.0301

QUERY: Can you handle `CAGTTTGA` next?
RESULT: 0.206

QUERY: Could you do the same for `ATATAATA` , please?
RESULT: 0.34

QUERY: # iterate: `ACGCGACC`
RESULT: -0.208

QUERY: Please answer likewise for `ACCAGGTA`
RESULT: -0.225

QUERY: Next sequence up: `GGGAATCA`
RESULT: 0.0407

QUERY: Similarly, `CTGTTAAA` ?
RESULT: 0.109

QUERY: Follow-up item: `AATAAATG`
RESULT: 0.194

QUERY: // same read-out, input: `AAGTTGAA`
RESULT: 0.0758

QUERY: Ok, now `AATATTTA`
RESULT: 0.318

QUERY: What about `ATAATACA` ?
RESULT: 0.305

QUERY: Let us now turn to `AGTGTTGC`
RESULT: 0.0949

QUERY: Would you kindly repeat that for `GGAATATA` ?
RESULT: 0.291

QUERY: Next: `ATCTCATG`
RESULT: 0.0775

QUERY: Next sequence: `ATTTCTCC`
RESULT: 0.404

QUERY: Query `GCTACGCC` next
RESULT: -0.239

QUERY: Again, but for `ACAATCCC`
RESULT: 0.0235

QUERY: And then `ATAATACG` , what is it?
RESULT: 0.187

QUERY: Try the sequence `AGGTCAGC`
RESULT: 0.0524

QUERY: How about `ACGGGTAT` ?
RESULT: 0.0865

QUERY: Moving on to `TTAATAAA`
RESULT: 0.381

QUERY: Continue with `ACGAATAC`
RESULT: 0.0881

Reference source: the supplement of paper PMC3334620
